System: ALL-PO (B-Lymphoblastic Leukemia);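 note: after 72 h of two-drug dosing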
Test: Bliss excess, mean over the matrix (fraction); higher = more synergy
propertyName: Bliss excess
Lab note: record just the number, no unit beside it.

Item: COc1cccc(OCCCN)c1-c1cc(Nc2cnc(C#N)cn2)n[nH]1 [Prexasertib] + Cc1cc2ncnn2cc1Nc1ncc2c(n1)n(C1CCOCC1)c(=O)n2C [AZD7648] (first compound max 1 µM, 7x7, partner max 10 µM) | Bliss excess: 0.0031

Item: C[C@@H](c1ccc2nccn2c1)n1nnc2ncc(-c3cnn(C)c3)nc21 [Savolitinib] + Cc1c2c(nn1C)CSCc1cc(n(C)n1)CSc1cc(c3ccccc3c1)OCCCc1c(C(=O)O)n(C)c3c-2c(Cl)ccc13 [AZD5991] (first compound max 1 µM, 7x7, partner max 1 µM) | Bliss excess: -0.0254

Item: CC1(C)CCC(CN2CCN(c3ccc(C(=O)NS(=O)(=O)c4ccc(NCC5CCOCC5)c([N+](=O)[O-])c4)c(Oc4cnc5[nH]ccc5c4)c3)CC2)=C(c2ccc(Cl)cc2)C1 [Venetoclax] + C[C@@H](Nc1cc(F)cc(F)c1)c1cc(C(=O)N(C)C)cc2c(=O)cc(N3CCOCC3)oc12 [AZD8186] (first compound max 1 µM, 7x7, partner max 3 µM) | Bliss excess: 0.202

Item: COc1cccc(OCCCN)c1-c1cc(Nc2cnc(C#N)cn2)n[nH]1 [Prexasertib] + C[C@@H]1COCCN1C2=NC(=NC(=C2)C3(CC3)[S@](=N)(=O)C)C4=C5C=CNC5=NC=C4 [AZD6738] (first compound max 1 µM, 7x7, partner max 10 µM) | Bliss excess: 0.0584

Item: CC1(C)CCC(CN2CCN(c3ccc(C(=O)NS(=O)(=O)c4ccc(NCC5CCOCC5)c([N+](=O)[O-])c4)c(Oc4cnc5[nH]ccc5c4)c3)CC2)=C(c2ccc(Cl)cc2)C1 [Venetoclax] + CCN(CCO)CCCOc1ccc2c(Nc3cc(CC(=O)Nc4cccc(F)c4)[nH]n3)ncnc2c1 [AZD2811] (first compound max 1 µM, 7x7, partner max 1 µM) | Bliss excess: 0.0129

Item: CC(=O)c1c(C)c2cnc(Nc3ccc(N4CCNCC4)cn3)nc2n(C2CCCC2)c1=O [Palbociclib] + CC1(C)CCC(CN2CCN(c3ccc(C(=O)NS(=O)(=O)c4ccc(NCC5CCOCC5)c([N+](=O)[O-])c4)c(Oc4cnc5[nH]ccc5c4)c3)CC2)=C(c2ccc(Cl)cc2)C1 [Venetoclax] (first compound max 10 µM, 7x7, partner max 1 µM) | Bliss excess: 0.169

Item: Cc1c2c(nn1C)CSCc1cc(n(C)n1)CSc1cc(c3ccccc3c1)OCCCc1c(C(=O)O)n(C)c3c-2c(Cl)ccc13 [AZD5991] + C[C@@H](Nc1cc(F)cc(F)c1)c1cc(C(=O)N(C)C)cc2c(=O)cc(N3CCOCC3)oc12 [AZD8186] (first compound max 1 µM, 7x7, partner max 3 µM) | Bliss excess: -0.0248

Item: C[C@@H](c1ccc2nccn2c1)n1nnc2ncc(-c3cnn(C)c3)nc21 [Savolitinib] + CN(CC[C@H](CSC1=CC=CC=C1)NC2=C(C=C(C=C2)S(=O)(=O)NC(=O)C3=CC=C(C=C3)N4CCC(CC4)[C@H](C5=CC=CC=C5C6=CC=C(C=C6)Cl)O)S(=O)(=O)C(F)(F)F)CCO [AZD4320] (first compound max 1 µM, 7x7, partner max 1 µM) | Bliss excess: -0.0307

Item: C=CCn1c(=O)c2cnc(Nc3ccc(N4CCN(C)CC4)cc3)nc2n1-c1cccc(C(C)(C)O)n1 [AZD1775] + C[C@@H]1COCCN1C2=NC(=NC(=C2)C3(CC3)[S@](=N)(=O)C)C4=C5C=CNC5=NC=C4 [AZD6738] (first compound max 1 µM, partner max 10 µM) | Bliss excess: 0.0624

Item: CCN(CCO)CCCOc1ccc2c(Nc3cc(CC(=O)Nc4cccc(F)c4)[nH]n3)ncnc2c1 [AZD2811] + C[C@@H]1COCCN1C2=NC(=NC(=C2)C3(CC3)[S@](=N)(=O)C)C4=C5C=CNC5=NC=C4 [AZD6738] (first compound max 1 µM, 7x7, partner max 10 µM) | Bliss excess: -0.0288

Item: Cc1cc2ncnn2cc1Nc1ncc2c(n1)n(C1CCOCC1)c(=O)n2C [AZD7648] + O=C(c1cc(Cc2n[nH]c(=O)c3ccccc23)ccc1F)N1CCN(C(=O)C2CC2)CC1 [Olaparib] (first compound max 10 µM, 7x7, partner max 10 µM) | Bliss excess: -0.0202

Item: C=CCn1c(=O)c2cnc(Nc3ccc(N4CCN(C)CC4)cc3)nc2n1-c1cccc(C(C)(C)O)n1 [AZD1775] + C1CN(CCC1(C(=O)N[C@@H](CCO)C2=CC=C(C=C2)Cl)N)C3=NC=NC4=C3C=CN4 [Capivasertib] (first compound max 3 µM, partner max 3 µM) | Bliss excess: -0.0134

Item: CN(CCO)CC[C@H](CSc1ccccc1)Nc1ccc(S(=O)(=O)NC(=O)c2ccc(N3CCC([C@@H](O)c4ccccc4-c4ccc(Cl)cc4)CC3)cc2)cc1S(=O)(=O)C(F)(F)F [AZD4320] + Cc1cc2ncnn2cc1Nc1ncc2c(n1)n(C1CCOCC1)c(=O)n2C [AZD7648] (first compound max 1 µM, 7x7, partner max 10 µM) | Bliss excess: 0.0085

FYI, the data here is from the supplement of paper PMC11061612.
